Where do these numbers come from? They come from patent US20160153991A1.

Avg Binding (Spot 1/2): recorded values
Tested on: nVLP GII.4
procedure-text: Surface plasmon resonance (SPR) screening of optimized peptides against GII.4
Assay type: binding, Norovirus
experimental-parameters: SPR, unpurified peptides against nVLP GII.4
Respond with the number and no other words.

Worked set:
DWARKNNKRKMNFNLGWGSC [Mut Peptide-60, optimized peptide] :: 134.3
RWVRVKLRSHTKLRYIGSC [Mut Peptide-94, optimized peptide] :: 358.2
DWARSNTSRSMDFNLGWGSC [nVLP-2WT] :: 2.5
RWVRVKLRSHTELNRYIGSC [Mut Peptide-93, optimized peptide] :: 274.2

For the next question, use this sequence.
For SWARSNNKRSKAFNLGWGSC [Mut Peptide-78, optimized peptide] , what is its reported Avg Binding (Spot 1/2)?
168.8
